meta.source: ChEMBL document CHEMBL3875187

Target of assay: UniProtKB Q9QWJ9
Measurement notes: Inhibition of biotin labelled VEGF165 binding to rat recombinant NRP-1/Fc chimeric protein incubated for overnight by competitive ELISA method
Setup conditions: read-out: IC50
pIC50: −log10 of the molar value. Positions of bridges follow the written chain, without caps; N, C: chain ends. Residues, ends and D or L forms follow the SMILES beside them.
Readout name: pIC50

1: N=C(N)NCCC[C@H](NC(=O)CC[C@@H]1NC(=O)[C@H]2CCCN2C(=O)[C@@H](N)CCCCNC(=O)CC[C@@H](C(=O)N[C@@H](CCCNC(=N)N)C(=O)O)NC(=O)[C@H]2CCCN2C(=O)[C@H](CCCCN)NC1=O)C(=O)O
2: N=C(N)NCCC[C@H](NC(=O)[C@@H]1CCCCNC(=O)CC[C@H](N)C(=O)N2CCC[C@H]2C(=O)N1)C(=O)O (H-EPKR-OH; lactam 1-3)
(Q) Hi! Which is lower in terms of pIC50, the first one 1 or the second one 2 ? Identify your pick by its label.
(A) 1
